Where these numbers come from: ChEMBL document CHEMBL4152371

assay-system: Hyaluronan mediated motility receptor (Homo sapiens) (UniProt O75330)
Sequence (whole entry): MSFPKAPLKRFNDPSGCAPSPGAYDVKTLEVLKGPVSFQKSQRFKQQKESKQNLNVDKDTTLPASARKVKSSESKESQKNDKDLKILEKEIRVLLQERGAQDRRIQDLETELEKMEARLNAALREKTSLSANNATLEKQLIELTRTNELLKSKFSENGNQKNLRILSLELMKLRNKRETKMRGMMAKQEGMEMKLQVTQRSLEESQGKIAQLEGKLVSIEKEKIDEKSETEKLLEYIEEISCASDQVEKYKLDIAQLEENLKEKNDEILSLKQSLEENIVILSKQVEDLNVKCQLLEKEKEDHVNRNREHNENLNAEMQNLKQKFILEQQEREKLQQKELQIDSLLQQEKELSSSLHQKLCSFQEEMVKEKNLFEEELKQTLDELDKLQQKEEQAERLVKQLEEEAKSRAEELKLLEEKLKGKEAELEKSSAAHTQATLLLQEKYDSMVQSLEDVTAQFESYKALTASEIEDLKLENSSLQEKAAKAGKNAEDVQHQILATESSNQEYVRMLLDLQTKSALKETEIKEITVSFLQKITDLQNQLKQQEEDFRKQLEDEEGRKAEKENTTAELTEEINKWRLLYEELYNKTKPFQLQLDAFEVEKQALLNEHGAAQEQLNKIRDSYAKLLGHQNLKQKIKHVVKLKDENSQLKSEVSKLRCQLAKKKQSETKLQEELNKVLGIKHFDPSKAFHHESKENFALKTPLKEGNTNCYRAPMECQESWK
method-summary: Inhibition of C-terminal His-tagged 7 kDa RHAMM (unknown origin) binding to HA assessed as association constant at 100 nM after 240 secs by SPR method
# strict inequality: K < 1 ×10⁴ /M.s yields class 1, everything else yields class 0

Study these solved cases before continuing.
>  <substance>
H-GEFEEEAEEEVA-NH2

>  <assay-system>
Hyaluronan mediated motility receptor (Homo sapiens) (UniProt O75330)

>  <class-name>
class 0

$$$$
>  <substance>
H-VEGEGEEEGEEY-NH2

>  <assay-system>
Hyaluronan mediated motility receptor (Homo sapiens) (UniProt O75330)

>  <class-name>
class 1

$$$$

Req: Strictly below 1 ×10⁴ /M.s in K? `H-EAFEDEEEEIDG-NH2`
Resp: class 0

Req: Strictly below 1 ×10⁴ /M.s in K? `H-SVEAEAEEGEEY-NH2`
Resp: class 0

Req: Strictly below 1 ×10⁴ /M.s in K? `H-FTEAESNMNDLV-NH2`
Resp: class 1

Req: Strictly below 1 ×10⁴ /M.s in K? `H-EEDFGEEAEEEA-NH2`
Resp: class 0
